Procedure summary: xn = mol fraction of the nth substance listed, in the solute-free solvent
Experimental context: 303.15 K; x2 = 0.3
Measured parameter: solubility (g/100 g solution)

{"Compound": "CC(C)C(=O)Nc1ccc([N+](=O)[O-])c(C(F)(F)F)c1 + CCOC(C)=O + CC(C)O", "Measured parameter": "solubility (g/100 g solution)", "Recorded value": 48.2}
{"Compound": "CC(C)C(=O)Nc1ccc([N+](=O)[O-])c(C(F)(F)F)c1 + C1CCOC1 + CC(C)O", "Measured parameter": "solubility (g/100 g solution)", "Recorded value": 53.9}
{"Compound": "CC(C)C(=O)Nc1ccc([N+](=O)[O-])c(C(F)(F)F)c1 + CC(C)=O + CC(C)O", "Measured parameter": "solubility (g/100 g solution)", "Recorded value": 52.2}
